- TARGET OR TEST SYSTEM: T1, Monomeric human CD48-mmH (human)
- T1 chain: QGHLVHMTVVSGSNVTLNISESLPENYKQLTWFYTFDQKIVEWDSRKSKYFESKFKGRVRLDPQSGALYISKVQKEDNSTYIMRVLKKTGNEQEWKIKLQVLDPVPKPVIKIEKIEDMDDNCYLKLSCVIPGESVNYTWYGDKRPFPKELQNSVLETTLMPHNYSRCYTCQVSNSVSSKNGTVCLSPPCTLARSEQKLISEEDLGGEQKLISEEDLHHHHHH
- ASSAY NAME: SPR (Biacore), antibody captured by anti-Fc, CD48 in solution, 37 C
- Procedure: Measurements were conducted on a T100-2 BIACORE™ instrument (Biacore Life Sciences division of GE Healthcare, Piscataway, N.J.). […] The soluble CD48 was applied to the flow cell in separate injections at different concentrations, and kinetic association (kₐ) and dissociation (kd) rate constants were determined by fits to the kinetic binding data using Biacore software. […]
Hi! Just check whether koff is below 0.0006 s⁻¹. Below gives criterion met, equal or above gives criterion not met.

BINDER	CAT
H2M1710N (antibody, mouse IgG2, V domains shown, Human variable domains, mouse IgG2 Fc (H2M)) VH: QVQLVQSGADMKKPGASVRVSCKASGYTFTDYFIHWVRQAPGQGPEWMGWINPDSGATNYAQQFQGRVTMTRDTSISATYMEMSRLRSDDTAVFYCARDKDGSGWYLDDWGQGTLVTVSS VL: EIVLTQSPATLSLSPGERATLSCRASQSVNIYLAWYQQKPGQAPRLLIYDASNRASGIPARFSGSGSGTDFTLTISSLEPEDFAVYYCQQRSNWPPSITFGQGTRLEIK	criterion not met
H2M1712N (antibody, mouse IgG2, V domains shown, Human variable domains, mouse IgG2 Fc (H2M)) VH: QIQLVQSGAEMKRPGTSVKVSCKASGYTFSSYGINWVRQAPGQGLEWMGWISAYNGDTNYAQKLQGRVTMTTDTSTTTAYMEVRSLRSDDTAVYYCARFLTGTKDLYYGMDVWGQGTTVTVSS VL: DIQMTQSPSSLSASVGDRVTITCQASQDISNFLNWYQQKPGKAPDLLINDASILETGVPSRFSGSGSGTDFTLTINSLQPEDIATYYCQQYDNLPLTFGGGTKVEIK	criterion not met
H2M1811N (antibody, mouse IgG2, V domains shown, Human variable domains, mouse IgG2 Fc (H2M)) VH: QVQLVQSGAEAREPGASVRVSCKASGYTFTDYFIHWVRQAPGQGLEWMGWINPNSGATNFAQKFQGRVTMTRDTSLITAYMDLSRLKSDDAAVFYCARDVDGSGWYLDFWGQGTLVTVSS VL: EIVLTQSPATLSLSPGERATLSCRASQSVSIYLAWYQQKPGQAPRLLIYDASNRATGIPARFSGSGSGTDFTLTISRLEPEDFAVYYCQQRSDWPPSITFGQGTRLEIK	criterion not met
H2M1707N (antibody, V domains shown, Human variable domains, mouse IgG2 Fc (H2M)) VH: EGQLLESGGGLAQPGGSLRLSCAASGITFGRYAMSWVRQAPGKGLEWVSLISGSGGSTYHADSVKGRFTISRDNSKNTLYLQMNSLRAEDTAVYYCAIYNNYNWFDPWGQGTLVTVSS VL: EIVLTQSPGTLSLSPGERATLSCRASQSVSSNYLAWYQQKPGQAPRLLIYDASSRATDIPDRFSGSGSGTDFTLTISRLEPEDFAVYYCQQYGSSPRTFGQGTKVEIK	criterion not met

API: query returns whether the binder falls strictly under 0.0006 s⁻¹ in koff. Query: H4H1778P (antibody, human IgG4, V domains shown, Human IgG4 Fc (H4H)) VH: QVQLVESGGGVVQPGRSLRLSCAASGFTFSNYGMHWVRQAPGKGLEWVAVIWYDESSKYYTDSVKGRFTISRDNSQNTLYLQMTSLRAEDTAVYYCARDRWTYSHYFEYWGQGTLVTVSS VL: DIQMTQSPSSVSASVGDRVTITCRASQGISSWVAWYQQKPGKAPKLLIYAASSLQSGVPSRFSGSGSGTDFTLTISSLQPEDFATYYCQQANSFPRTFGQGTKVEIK criterion met
